assayProtocol: Tg of HDC formulations with incorporated active
Format: physicochemical
experimentalConditions: hydrophobic active (fluticasone propionate, 5% loading) incorporated
observationType: Tg (° C.) with active incorporated (°C)

CC(=O)OC[C@H]1O[C@@H](O[C@H]2[C@H](OC(C)=O)[C@@H](OC(C)=O)C(OC(=O)C(C)C)O[C@@H]2COC(C)=O)[C@H](OC(C)=O)[C@@H](OC(C)=O)[C@H]1OC(C)=O (stereo partly shown) [Lactose isobutyrate heptaacetate] : 59
CC(C)(C)C(=O)OC[C@H]1O[C@H](O[C@H]2O[C@H](COC(=O)C(C)(C)C)[C@@H](OC(=O)C(C)(C)C)[C@H](OC(=O)C(C)(C)C)[C@H]2OC(=O)C(C)(C)C)[C@H](OC(=O)C(C)(C)C)[C@@H](OC(=O)C(C)(C)C)[C@@H]1OC(=O)C(C)(C)C [Trehalose octapivalate] : 80
CC(=O)OCC1OC(OC2OC(COC(C)=O)C(OC(C)=O)C(OC(C)=O)C2OC(C)=O)C(OC(C)=O)C(OC(C)=O)C1OC(C)=O (stereo not shown) [Trehalose octaacetate, reference compound] : 53
CC(C)(C)CC(=O)OC[C@H]1O[C@H](O[C@H]2O[C@H](COC(=O)CC(C)(C)C)[C@@H](OC(=O)CC(C)(C)C)[C@H](OC(=O)CC(C)(C)C)[C@H]2OC(=O)CC(C)(C)C)[C@H](OC(=O)CC(C)(C)C)[C@@H](OC(=O)CC(C)(C)C)[C@@H]1OC(=O)CC(C)(C)C [Trehalose octa-3,3-dimethylbutyrate] : 45

Data provenance: patent US6352722B1
